Below, each of the binders is paired with its reported EC50, cAMP, 0.1 ng/mL Doxycycline value.
target: human melanocortin-4 receptor (human, UniProt P32245 1-332); test: cell-based or functional assay
Sequence (P32245 whole entry): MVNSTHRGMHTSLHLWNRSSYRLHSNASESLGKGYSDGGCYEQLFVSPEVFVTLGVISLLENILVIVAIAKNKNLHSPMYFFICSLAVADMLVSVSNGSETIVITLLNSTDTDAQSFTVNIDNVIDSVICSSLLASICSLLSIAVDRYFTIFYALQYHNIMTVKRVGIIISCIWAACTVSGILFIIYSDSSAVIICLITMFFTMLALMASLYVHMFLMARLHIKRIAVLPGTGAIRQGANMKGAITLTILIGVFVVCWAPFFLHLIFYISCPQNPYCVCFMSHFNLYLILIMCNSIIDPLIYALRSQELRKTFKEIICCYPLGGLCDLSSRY
Positions of bridges follow the written chain, without caps; N, C: chain ends. Non-standard residues stand in square brackets, D forms with d. dPhe(2-CF3) = N[C@H](Cc1ccccc1C(F)(F)F)C(=O)O; dPhe(4-CN) = N#Cc1ccc(C[C@@H](N)C(=O)O)cc1; dPhe(2-Cl) = N[C@H](Cc1ccccc1Cl)C(=O)O; dPhe(2-Me) = Cc1ccccc1C[C@@H](N)C(=O)O; dPhe(2-F) = N[C@H](Cc1ccccc1F)C(=O)O; Orn = NCCC[C@H](N)C(=O)O
Your answer should be a plain number; it is taken to be in nM.

The following binders have reported results that may help.
[
  {
    "binder": "Ac-R[Orn]N[dPhe(2-Me)]RWE-NH2 (lactam 2-7, also called No. 74) [Ac-Arg-cyclo(Orn-Asn-D-Phe(2-Me)-Arg-Trp-Glu)-NH2]",
    "parameter": "EC50, cAMP, 0.1 ng/mL Doxycycline",
    "valueObserved": 0.943
  },
  {
    "binder": "XDQXRWK (N-terminal Ac; D-Arg 1; D-Phe(2-F) 4; lactam Asp 2-Lys 7; C-terminal NH2, also called No. 82) [Ac-D-Arg-cyclo(Asp-Gln-D-Phe(2-F)-Arg-Trp-Lys)-NH2]",
    "parameter": "EC50, cAMP, 0.1 ng/mL Doxycycline",
    "valueObserved": 2
  },
  {
    "binder": "Ac-REQ[dPhe(2-F)]RW[Orn]-NH2 (lactam 2-7, also called No. 59) [Ac-Arg-cyclo(Glu-Gln-D-Phe(2-F)-Arg-Trp-Orn)-NH2]",
    "parameter": "EC50, cAMP, 0.1 ng/mL Doxycycline",
    "valueObserved": 0.6
  },
  {
    "binder": "Ac-REQ[dPhe(4-CN)]RW[Orn]-OH (lactam 2-7, also called No. 86) [Ac-Arg-cyclo(Glu-Gln-D-Phe(4-CN)-Arg-Trp-Orn)-OH]",
    "parameter": "EC50, cAMP, 0.1 ng/mL Doxycycline",
    "valueObserved": 9
  },
  {
    "binder": "Ac-REQ[dPhe(2-Cl)]RW[Orn]-NH2 (lactam 2-7, also called No. 34) [Ac-Arg-cyclo(Glu-Gln-D-Phe(2-Cl)-Arg-Trp-Orn)-NH2]",
    "parameter": "EC50, cAMP, 0.1 ng/mL Doxycycline",
    "valueObserved": 1
  },
  {
    "binder": "XDQXRWK (N-terminal Ac; D-Arg 1; D-Phe(3,4-diF) 4; lactam Asp 2-Lys 7; C-terminal NH2, also called No. 78) [Ac-D-Arg-cyclo(Asp-Gln-D-Phe(3,4-diF)-Arg-Trp-Lys)-NH2]",
    "parameter": "EC50, cAMP, 0.1 ng/mL Doxycycline",
    "valueObserved": 2
  },
  {
    "binder": "Ac-REQ[dPhe(2-CF3)]RW[Orn]-NH2 (lactam 2-7, also called No. 114) [Ac-Arg-cyclo(Glu-Gln-D-Phe(2-CF3)-Arg-Trp-Orn)-NH2]",
    "parameter": "EC50, cAMP, 0.1 ng/mL Doxycycline",
    "valueObserved": 1
  },
  {
    "binder": "Ac-R[Orn]N[dPhe(2-F)]RWE-NH2 (lactam 2-7, also called No. 71) [Ac-Arg-cyclo(Orn-Asn-D-Phe(2-F)-Arg-Trp-Glu)-NH2]",
    "parameter": "EC50, cAMP, 0.1 ng/mL Doxycycline",
    "valueObserved": 1
  }
]

Consider the binder Ac-RET[dPhe(4-CN)]RW[Orn]-NH2 (lactam 2-7; SMILES CC(=O)N[C@@H](CCCNC(=N)N)C(=O)N[C@H]1CCC(=O)NCCC[C@@H](C(N)=O)NC(=O)[C@H](Cc2c[nH]c3ccccc23)NC(=O)[C@H](CCCNC(=N)N)NC(=O)[C@@H](Cc2ccc(C#N)cc2)NC(=O)[C@H]([C@@H](C)O)NC1=O, also called No. 44) [Ac-Arg-cyclo(Glu-Thr-D-Phe(4-CN)-Arg-Trp-Orn)-NH2] and give its measured EC50, cAMP, 0.1 ng/mL Doxycycline.
11

Consider the binder Ac-R[Orn]Q[dPhe(4-CN)]RWE-NH2 (lactam 2-7, also called No. 94) [Ac-Arg-cyclo(Orn-Gln-D-Phe(4-CN)-Arg-Trp-Glu)-NH2] and give its measured EC50, cAMP, 0.1 ng/mL Doxycycline.
0.24

Consider the binder XDQXRWK (N-terminal Ac; D-Arg 1; D-Phe(4-F) 4; lactam Asp 2-Lys 7; C-terminal NH2, also called No. 83) [Ac-D-Arg-cyclo(Asp-Gln-D-Phe(4-F)-Arg-Trp-Lys)-NH2] and give its measured EC50, cAMP, 0.1 ng/mL Doxycycline.
0.75
